system: Escherichia coli TOP10; assay: shrunken log2 fold change of peptide-encoding DNA abundance (4.5 h post-induction vs induction); higher = less antimicrobial activity (less host growth inhibition); details: time post-induction: 4.5 h; library: site-saturation at positions 5, 18, 19, 20
Could you label it Criterion met if measured shrunken log2 fold change is 0.01 or higher, and Criterion not met otherwise?

[ask] Tell me whether shrunken log2 fold change is at least 0.01 here: "RRIRYRPPRLPRPRPRPGSAPRP"
[reply] Criterion not met

[ask] Answer whether shrunken log2 fold change of "RRIRKRPPRLPRPRPRPTKAPRP" is greater than or equal to 0.01.
[reply] Criterion met

[ask] Kindly determine if shrunken log2 fold change recorded for "RRIRDRPPRLPRPRPRPFVIPRP" is above or exactly 0.01.
[reply] Criterion met

[ask] hey, is shrunken log2 fold change for this one >= 0.01? "RRIRSRPPRLPRPRPRPKMAPRP"
[reply] Criterion not met

[ask] Has "RRIRLRPPRLPRPRPRPQNCPRP" a recorded shrunken log2 fold change greater than or equal to 0.01?
[reply] Criterion met

[ask] Hello, I need to know if "RRIRSRPPRLPRPRPRPAVNPRP" has measured shrunken log2 fold change not below 0.01. Thanks!
[reply] Criterion met

[ask] Is shrunken log2 fold change at least 0.01? Consider "RRIRYRPPRLPRPRPRPIFVPRP"
[reply] Criterion not met

[ask] Reported shrunken log2 fold change reaches at least 0.01 for "RRIRHRPPRLPRPRPRPAMNPRP" ?
[reply] Criterion not met

[ask] Can "RRIRKRPPRLPRPRPRPVKDPRP" be said to have shrunken log2 fold change at or above 0.01?
[reply] Criterion met

[ask] Kindly determine if shrunken log2 fold change recorded for "RRIRMRPPRLPRPRPRPVQNPRP" is above or exactly 0.01.
[reply] Criterion met

New cases:
[ask] Is shrunken log2 fold change for "RRIRPRPPRLPRPRPRPSPEPRP" at or above 0.01?
[reply] Criterion not met

[ask] Dear colleague, could you confirm whether "RRIRWRPPRLPRPRPRPGLDPRP" has shrunken log2 fold change at or above 0.01?
[reply] Criterion met

[ask] Would you say "RRIRQRPPRLPRPRPRPCGTPRP" shows shrunken log2 fold change at minimum 0.01?
[reply] Criterion met

[ask] Would you say "RRIRERPPRLPRPRPRPEEFPRP" shows shrunken log2 fold change at minimum 0.01?
[reply] Criterion not met

[ask] Hi, just wondering whether "RRIRDRPPRLPRPRPRPHFFPRP" shows shrunken log2 fold change of 0.01 or higher.
[reply] Criterion met

[ask] Textbook exercise: given the entry "RRIRMRPPRLPRPRPRPYKIPRP" , state whether its shrunken log2 fold change is greater than or equal to 0.01.
[reply] Criterion not met

[ask] Quick check, shrunken log2 fold change >= 0.01? "RRIRERPPRLPRPRPRPMFTPRP"
[reply] Criterion not met

----------
system: Escherichia coli TOP10; test: shrunken log2 fold change of peptide-encoding DNA abundance (4.5 h post-induction vs induction); higher = less antimicrobial activity (less host growth inhibition); details: time post-induction: 4.5 h; library: site-saturation at positions 5, 18, 19, 20
Label rule, in plain words: shrunken log2 fold change of -0.03 and up is t, under -0.03 is f.

Known results for sequences:
[ask] Form field: shrunken log2 fold change at least -0.03? Entry: "RRIRWRPPRLPRPRPRPFPDPRP"
[reply] t

[ask] Is shrunken log2 fold change for "RRIRIRPPRLPRPRPRPTLIPRP" at or above -0.03?
[reply] f

[ask] Assess whether reported shrunken log2 fold change for "RRIRVRPPRLPRPRPRPPWDPRP" sits at -0.03 or higher.
[reply] t

[ask] shrunken log2 fold change >= -0.03 for "RRIRWRPPRLPRPRPRPKWCPRP" ?
[reply] f

[ask] Does the sequence "RRIRPRPPRLPRPRPRPTHPPRP" have recorded shrunken log2 fold change that is -0.03 or more?
[reply] t

***
[ask] Say whether "RRIRHRPPRLPRPRPRPETCPRP" shows shrunken log2 fold change of -0.03 or more.
[reply] t

----------
system: Escherichia coli TOP10; assay: shrunken log2 fold change of peptide-encoding DNA abundance (4.5 h post-induction vs induction); higher = less antimicrobial activity (less host growth inhibition); details: time post-induction: 4.5 h; library: site-saturation at positions 5, 18, 19, 20
assay endpoint: shrunken log2 fold change
The answer should be written as a number, with no unit following it.

Worked set:
[ask] Lab request: please report shrunken log2 fold change under test system Escherichia coli TOP10 for "RRIRHRPPRLPRPRPRPYQFPRP"
[reply] -0.0129

[ask] What shrunken log2 fold change appears in the records for this sequence with Escherichia coli TOP10? "RRIRWRPPRLPRPRPRPMKHPRP"
[reply] -0.0254

[ask] Param readout = shrunken log2 fold change; param system = Escherichia coli TOP10; param query = "RRIRVRPPRLPRPRPRPTAFPRP" ; response: value
[reply] 0.0786

[ask] Any idea what shrunken log2 fold change came out for "RRIRRRPPRLPRPRPRPYQKPRP" on Escherichia coli TOP10?
[reply] -0.458

Continuing:
[ask] Observed shrunken log2 fold change on Escherichia coli TOP10 for "RRIRTRPPRLPRPRPRPPPYPRP" , please.
[reply] -0.000222

[ask] Lab request: please report shrunken log2 fold change under test system Escherichia coli TOP10 for "RRIRNRPPRLPRPRPRPHWNPRP"
[reply] -1.01

[ask] Request body: readout shrunken log2 fold change, system Escherichia coli TOP10, query "RRIRRRPPRLPRPRPRPKFVPRP" . Return the value.
[reply] -0.151

----------
Let's look at some sequences and their measured shrunken log2 fold change.
tested on: Escherichia coli TOP10; assay: shrunken log2 fold change of peptide-encoding DNA abundance (4.5 h post-induction vs induction); higher = less antimicrobial activity (less host growth inhibition); details: time post-induction: 4.5 h; library: site-saturation at positions 5, 18, 19, 20
Response field accepts a number only; no unit should be typed.

[ask] Which shrunken log2 fold change value belongs to "RRIRFRPPRLPRPRPRPHIRPRP" ?
[reply] -0.113

Further cases:
[ask] What measured shrunken log2 fold change goes with "RRIRQRPPRLPRPRPRPAEPPRP" ?
[reply] 0.157

[ask] So what does the record say about shrunken log2 fold change for "RRIRERPPRLPRPRPRPMYYPRP" ?
[reply] -0.241

[ask] What measured shrunken log2 fold change goes with "RRIRSRPPRLPRPRPRPWIAPRP" ?
[reply] -0.181

[ask] Request the reported shrunken log2 fold change associated with "RRIRIRPPRLPRPRPRPHTWPRP"
[reply] -0.401

[ask] Can you look up the measured shrunken log2 fold change of "RRIRHRPPRLPRPRPRPKKVPRP" for me?
[reply] 0.00707

[ask] Value lookup for shrunken log2 fold change; key = "RRIRARPPRLPRPRPRPPGKPRP"
[reply] 0.188

[ask] What does the record list as shrunken log2 fold change for "RRIRGRPPRLPRPRPRPYKGPRP" ?
[reply] -0.236

[ask] # shrunken log2 fold change lookup, item "RRIRFRPPRLPRPRPRPAMVPRP"
[reply] -0.149

[ask] For the sequence "RRIRKRPPRLPRPRPRPVITPRP" , what shrunken log2 fold change is on record?
[reply] -0.249

----------
system: Escherichia coli TOP10; assay: shrunken log2 fold change of peptide-encoding DNA abundance (4.5 h post-induction vs induction); higher = less antimicrobial activity (less host growth inhibition); settings: time post-induction: 4.5 h; library: site-saturation at positions 5, 18, 19, 20
The following sequences are shown together with reported shrunken log2 fold change values.
Quick one: just the number, no unit, thanks!

[ask] Which shrunken log2 fold change reading was recorded for the sequence "RRIRPRPPRLPRPRPRPWECPRP" ?
[reply] -0.0846

[ask] Could you share which shrunken log2 fold change value was measured for "RRIRMRPPRLPRPRPRPSMCPRP" ?
[reply] 0.0724

[ask] Form field: reported shrunken log2 fold change of "RRIRRRPPRLPRPRPRPDGRPRP"
[reply] 0.0193

[ask] Give its shrunken log2 fold change value. Item: "RRIRARPPRLPRPRPRPQHNPRP"
[reply] -0.26

[ask] Endpoint output: shrunken log2 fold change of "RRIRRRPPRLPRPRPRPCHKPRP" . Value?
[reply] 0.153

[ask] Given "RRIRVRPPRLPRPRPRPWCRPRP" , state its recorded shrunken log2 fold change.
[reply] -0.396

[ask] # query: shrunken log2 fold change of entry "RRIRIRPPRLPRPRPRPFPTPRP"
[reply] 0.0232

[ask] # input sequence: "RRIRKRPPRLPRPRPRPACIPRP" ; wanted: its shrunken log2 fold change
[reply] 0.031

----------
system: Escherichia coli TOP10; experiment: shrunken log2 fold change of peptide-encoding DNA abundance (4.5 h post-induction vs induction); higher = less antimicrobial activity (less host growth inhibition); conditions: time post-induction: 4.5 h; library: site-saturation at positions 5, 18, 19, 20
Parameter shrunken log2 fold change: see the listing below.
Answer as a number with no unit attached.

See these solved cases before continuing.
[ask] Fill in the recorded shrunken log2 fold change for this sequence, with Escherichia coli TOP10 as test system: "RRIRCRPPRLPRPRPRPHTWPRP"
[reply] -0.216

[ask] Hi! What's the reported shrunken log2 fold change for "RRIRMRPPRLPRPRPRPDAKPRP" on Escherichia coli TOP10?
[reply] 0.937

[ask] Any idea what shrunken log2 fold change came out for "RRIRKRPPRLPRPRPRPTMLPRP" on Escherichia coli TOP10?
[reply] 0.131

[ask] # returns recorded shrunken log2 fold change (system: Escherichia coli TOP10) for "RRIRDRPPRLPRPRPRPYPVPRP"
[reply] 0.00705

[ask] Form field - read-out: shrunken log2 fold change; system: Escherichia coli TOP10; submitted item: "RRIRVRPPRLPRPRPRPQVPPRP"
[reply] -0.205

***
[ask] Return shrunken log2 fold change measured with Escherichia coli TOP10 given this sequence: "RRIRRRPPRLPRPRPRPMTLPRP"
[reply] -0.142

[ask] Request body: readout shrunken log2 fold change, system Escherichia coli TOP10, query "RRIRDRPPRLPRPRPRPARRPRP" . Return the value.
[reply] 0.59

[ask] Form entry - test system: Escherichia coli TOP10; read-out: shrunken log2 fold change; sequence: "RRIRKRPPRLPRPRPRPMWHPRP"
[reply] -0.183

[ask] Test system Escherichia coli TOP10; read-out shrunken log2 fold change; what value for "RRIRYRPPRLPRPRPRPPQHPRP" ?
[reply] -0.171

[ask] Which shrunken log2 fold change is reported with Escherichia coli TOP10 for this entry: "RRIRTRPPRLPRPRPRPGICPRP" ?
[reply] -0.0258

[ask] Request body: readout shrunken log2 fold change, system Escherichia coli TOP10, query "RRIRLRPPRLPRPRPRPQECPRP" . Return the value.
[reply] -0.00874

[ask] For the record "RRIRQRPPRLPRPRPRPLDGPRP" , what value of shrunken log2 fold change is listed for Escherichia coli TOP10?
[reply] 0.237

[ask] Which measured shrunken log2 fold change belongs to "RRIRWRPPRLPRPRPRPKLKPRP" , tested on Escherichia coli TOP10?
[reply] 0.507

[ask] Find the measured shrunken log2 fold change: item "RRIRVRPPRLPRPRPRPYTVPRP" , target or system Escherichia coli TOP10.
[reply] -0.0784

[ask] Value wanted: shrunken log2 fold change (Escherichia coli TOP10) of entry "RRIRLRPPRLPRPRPRPSFNPRP"
[reply] -0.529

[ask] Provide value of shrunken log2 fold change for this record tested with Escherichia coli TOP10: "RRIRCRPPRLPRPRPRPAEIPRP"
[reply] -0.0903

[ask] Find the measured shrunken log2 fold change: item "RRIRERPPRLPRPRPRPLGEPRP" , target or system Escherichia coli TOP10.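 Also: peptides expressed intracellularly from a pBAD plasmid library in pooled LB shake-flask culture, induced with 0.3% L-arabinose, DNA abundance read by NGS, three biological replicates, DESeq2 with apeglm shrinkage.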
[reply] 0.0918

[ask] # value lookup — system Escherichia coli TOP10, readout shrunken log2 fold change, item "RRIRHRPPRLPRPRPRPMHYPRP"
[reply] -0.289

[ask] Notebook entry, Escherichia coli TOP10 assay: shrunken log2 fold change of "RRIRLRPPRLPRPRPRPWGNPRP" = ?
[reply] -0.106

[ask] Please state recorded shrunken log2 fold change (tested on Escherichia coli TOP10) of "RRIRGRPPRLPRPRPRPSCYPRP"
[reply] -0.0977

[ask] Notebook: pull reported shrunken log2 fold change for Escherichia coli TOP10, entry "RRIRIRPPRLPRPRPRPMPAPRP"
[reply] 0.0451
